The entries below come with measured Binding of serum 1a to linear peptides of protein M of SARS-CoV Urbani values attached.
System: antibodies in sera from SARS patients (sera 1a, 1b, 2, 6, 37, 62, London, SARS-yellow, SARS-green)
Format: binding, human
Please give the numeric answer without any surrounding text.

Prompt line: Name the recorded Binding of serum 1a to linear peptides of protein M of SARS-CoV Urbani of the sequence listed here: DSGFAAYNRYRIGNY
Response line: 0.6

Prompt line: Name the recorded Binding of serum 1a to linear peptides of protein M of SARS-CoV Urbani of the sequence listed here: RFLYIIKLVFLWLLW
Response line: 0.7

Prompt line: Name the recorded Binding of serum 1a to linear peptides of protein M of SARS-CoV Urbani of the sequence listed here: MWSFNPETNILLNVP
Response line: 0.8

Prompt line: Name the recorded Binding of serum 1a to linear peptides of protein M of SARS-CoV Urbani of the sequence listed here: PLMESELVIGAVIIR
Response line: 0.7

Prompt line: Name the recorded Binding of serum 1a to linear peptides of protein M of SARS-CoV Urbani of the sequence listed here: LFLAWIMLLQFAYSN
Response line: 0.7

Prompt line: Name the recorded Binding of serum 1a to linear peptides of protein M of SARS-CoV Urbani of the sequence listed here: YRINWVTGGIAIAMA
Response line: 0.7

Prompt line: Name the recorded Binding of serum 1a to linear peptides of protein M of SARS-CoV Urbani of the sequence listed here: QRVGTDSGFAAYNRY
Response line: 0.7

Prompt line: Name the recorded Binding of serum 1a to linear peptides of protein M of SARS-CoV Urbani of the sequence listed here: YSNRNRFLYIIKLVF
Response line: 0.7

Prompt line: Name the recorded Binding of serum 1a to linear peptides of protein M of SARS-CoV Urbani of the sequence listed here: NLVIGFLFLAWIMLL
Response line: 0.7

---

Tested on: antibodies in sera from SARS patients (sera 1a, 1b, 2, 6, 37, 62, London, SARS-yellow, SARS-green)
Assay type: binding, human
attribute.measured: Binding of serum 62 to looped/cyclic peptides of protein M of SARS-CoV Urbani

Below: 3 sequences and their reported Binding of serum 62 to looped/cyclic peptides of protein M of SARS-CoV Urbani.
>>> assay_result("SFNPETNILLNVPLR")
0.8
>>> assay_result("AYNRYRIGNYKLNTD")
0.6
>>> assay_result("DSGFAAYNRYRIGNY")
0.6

Prompt line: Name the recorded Binding of serum 62 to looped/cyclic peptides of protein M of SARS-CoV Urbani of the sequence listed here: VGLMWLSYFVASFRL
Response line: 0.5

Prompt line: Name the recorded Binding of serum 62 to looped/cyclic peptides of protein M of SARS-CoV Urbani of the sequence listed here: FAAYNRYRIGNYKLN
Response line: 0.6

Prompt line: Name the recorded Binding of serum 62 to looped/cyclic peptides of protein M of SARS-CoV Urbani of the sequence listed here: AVYRINWVTGGIAIA
Response line: 0.7

---

System: antibodies in sera from SARS patients (sera 1a, 1b, 2, 6, 37, 62, London, SARS-yellow, SARS-green)
Format: binding, human
attribute.measured: Binding of serum London to looped/cyclic peptide (PEPSCAN-ELISA)

Below: 3 sequences and their reported Binding of serum London to looped/cyclic peptide (PEPSCAN-ELISA).
>>> assay_result("ALNKRWQLALYKGFQ")
0.3
>>> assay_result("NLLLLFVTIYSHLLL")
0.2
>>> assay_result("ATIPLQASLPFGWLV")
0.3

Prompt line: Name the recorded Binding of serum London to looped/cyclic peptide (PEPSCAN-ELISA) of the sequence listed here: CNLLLLFVTIYSHLL
Response line: 0.2

Prompt line: Name the recorded Binding of serum London to looped/cyclic peptide (PEPSCAN-ELISA) of the sequence listed here: LLLLFVTIYSHLLLV
Response line: 0.2

Prompt line: Name the recorded Binding of serum London to looped/cyclic peptide (PEPSCAN-ELISA) of the sequence listed here: KNPLLYDANYFVCWH
Response line: 0.2

Prompt line: Name the recorded Binding of serum London to looped/cyclic peptide (PEPSCAN-ELISA) of the sequence listed here: YALIYFLQCINACRI
Response line: 0.1

Prompt line: Name the recorded Binding of serum London to looped/cyclic peptide (PEPSCAN-ELISA) of the sequence listed here: HATATIPLQASLPFG
Response line: 0.2

Prompt line: Name the recorded Binding of serum London to looped/cyclic peptide (PEPSCAN-ELISA) of the sequence listed here: LAVFQSATKIIALNK
Response line: 0.7

Prompt line: Name the recorded Binding of serum London to looped/cyclic peptide (PEPSCAN-ELISA) of the sequence listed here: RIIMRCWLCWKCKSK
Response line: 0.1

Prompt line: Name the recorded Binding of serum London to looped/cyclic peptide (PEPSCAN-ELISA) of the sequence listed here: LLLVAAGMEAQFLYL
Response line: 0.2

Prompt line: Name the recorded Binding of serum London to looped/cyclic peptide (PEPSCAN-ELISA) of the sequence listed here: YSHLLLVAAGMEAQF
Response line: 0.3
